- experimental target: HRH2 (Homo sapiens)
- Construct: purchased Promega (in-house HiBiT-GPCR construct library, NanoBRET)
- Sequence (P25021 whole entry): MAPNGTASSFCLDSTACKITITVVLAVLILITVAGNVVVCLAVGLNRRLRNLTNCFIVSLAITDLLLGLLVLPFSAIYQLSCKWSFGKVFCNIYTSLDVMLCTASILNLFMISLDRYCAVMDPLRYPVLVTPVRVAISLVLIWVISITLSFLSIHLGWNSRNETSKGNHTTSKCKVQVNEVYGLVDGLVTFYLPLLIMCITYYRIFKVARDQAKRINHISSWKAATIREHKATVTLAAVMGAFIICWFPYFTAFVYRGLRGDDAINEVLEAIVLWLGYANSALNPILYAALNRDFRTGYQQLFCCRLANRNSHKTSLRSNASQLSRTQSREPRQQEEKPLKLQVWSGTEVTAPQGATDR
- protocol: NanoBRET screen HiBiT-HRH2 in HEK293
- Assay type: binding
- reported conditions: HRH2; tracer 0.1μM
readout name: NanoBRET Fold Response

• CC(C)N(CC[C@H](c1ccccc1)c1cc(CCNC(=O)CCOCCOCCOCCOCCNC(=O)CCc2ccc3n2[B-](F)(F)[N+]2=C(c4ccc[nH]4)C=CC2=C3)ccc1O)C(C)C = 1.06
• Cc1cc2c(s1)Nc1ccccc1N=C2N1CCN(CCCNC(=O)CCOCCOCCOCCOCCNC(=O)CCc2ccc3n2[B-](F)(F)[N+]2=C(c4ccc[nH]4)C=CC2=C3)CC1 = 0.89
• Cc1nc2n(c(=O)c1CCN1CCC(c3noc4cc(F)ccc34)CC1)CCCC2OC(=O)NCCOCCOCCOCCOCCNC(=O)CCc1ccc2n1[B-](F)(F)[N+]1=C(c3ccc[nH]3)C=CC1=C2 (stereo not drawn) = 1.05
